Here is a set of compounds with reported Ki for 5-hydroxytryptamine receptor 5A (Homo sapiens, UniProt P47898), compiled from the literature.

// lookup Ki | system=5-hydroxytryptamine receptor 5A (Homo sapiens, UniProt P47898) | key= COc1cccc(OC)c1CNC(=N)Nc1ncc(C)s1 < 50 nM

// lookup Ki | system=5-hydroxytryptamine receptor 5A (Homo sapiens, UniProt P47898) | key= CC1C=C(c2ccc(C#N)cc2)c2cc(C(=O)N=C(N)N)ccc2O1 (centres unmarked) 3 to 30 nM

// lookup Ki | system=5-hydroxytryptamine receptor 5A (Homo sapiens, UniProt P47898) | key= CC1(C)CC=C(c2ccccc2)c2cc(C(=O)N=C(N)N)ccc21 30 to 300 nM

// lookup Ki | system=5-hydroxytryptamine receptor 5A (Homo sapiens, UniProt P47898) | key= CC(C)Oc1ccccc1C1=CCCc2ccc(C(=O)N=C(N)N)cc21 30 to 300 nM

// lookup Ki | system=5-hydroxytryptamine receptor 5A (Homo sapiens, UniProt P47898) | key= Nc1nc2ccccc2cc1Cc1ccccc1OC(F)(F)F < 300 nM
